tested on: panel of 55 breast cancer cell lines; test: Cell growth inhibition assay (Cell Titer Glo, 72 h, 9 doses; GI50, TGI, LC50); format: cell-based, human; settings: UACC812 cell line; censored GI50 values; value is the negative log10 of mol/L
measured attribute: GI50
Give the figure only, with no unit attached.

q: Value wanted: GI50 (panel of 55 breast cancer cell lines) of entry O=C1NC(=O)/C(=C/c2ccc(-c3ccc(F)cc3O)o2)S1
a: 4.88

q: Value wanted: GI50 (panel of 55 breast cancer cell lines) of entry Oc1cc(-c2nc(-c3ccccc3)[nH]c2-c2ccncc2)ccc1Cl
a: 4.97

q: Value wanted: GI50 (panel of 55 breast cancer cell lines) of entry CC(/C=C/C(=O)NO)=C\[C@@H](C)C(=O)c1ccc(N(C)C)cc1
a: 5.04

----------
Would you mind telling me the reported GI50 of each entry?
test system: panel of 55 breast cancer cell lines; assay: Cell growth inhibition assay (Cell Titer Glo, 72 h, 9 doses; GI50, TGI, LC50); format: cell-based, human; details: Homo sapiens, HCC38, HCC38 cell line; censored GI50 values; read-out: GI50 (converted)
// note: answer is a bare numeric in nM

q: Quick check: GI50 of CC(C)C[C@H](NC(=O)[C@H](Cc1ccccc1)NC(=O)c1cnccn1)B(O)O ?
a: 11

q: Quick check: GI50 of COc1cccc2c1C(=O)c1c(O)c3c(c(O)c1C2=O)C[C@@](O)(C(=O)CO)C[C@@H]3O[C@H]1C[C@H](N)[C@H](O)[C@H](C)O1 ?
a: 72.4

q: Quick check: GI50 of CN(C)C/C=C/C(=O)Nc1cc2c(Nc3ccc(F)c(Cl)c3)ncnc2cc1O[C@H]1CCOC1 ?
a: 1820

q: Quick check: GI50 of CCNCCCNC/C=C\CNCCCNCC ?
a: 11700

q: Quick check: GI50 of COC1=C2C[C@@H](C)C[C@H](OC)[C@H](O)[C@@H](C)/C=C(\C)[C@H](OC(N)=O)[C@@H](OC)/C=C\C=C(/C)C(=O)NC(=CC1=O)C2=O ?
a: 28.8

----------
system: panel of 55 breast cancer cell lines; assay: Cell growth inhibition assay (Cell Titer Glo, 72 h, 9 doses; GI50, TGI, LC50); type: cell-based, human; conditions: BT474 cell line; censored GI50 values; value is the negative log10 of mol/L
measured attribute: GI50
Give the figure only, with no unit attached.

q: Quick check: GI50 of O=c1[nH]c2ccccc2n1C1CCN(Cc2ccc(-c3nc4cc5[nH]cnc5cc4nc3-c3ccccc3)cc2)CC1 ?
a: 6.08

q: Quick check: GI50 of C[C@@H](Oc1cc(-n2cnc3ccc(CN4CCN(C)CC4)cc32)sc1C(N)=O)c1ccccc1C(F)(F)F [GSK461364A] ?
a: 5.07

q: Quick check: GI50 of CCNCCCCNCCCCNCCCCNCCCCNCC=CCNCCCCNCCCCNCCCCNCCCCNCC.Cl.Cl.Cl.Cl.Cl.Cl.Cl.Cl.Cl.Cl (stereo in doubt) ?
a: 6.02

q: Quick check: GI50 of CC(/C=C/C(=O)NO)=C\[C@@H](C)C(=O)c1ccc(N(C)C)cc1 ?
a: 5.00

q: Quick check: GI50 of CNC(=O)c1c(F)cccc1Nc1nc(Nc2cc3c(cc2OC)CCN3C(=O)CN(C)C)nc2[nH]ccc12 [GSK1838705A] ?
a: 5.08
